Numbers sourced from ChEMBL document CHEMBL1135811.

assay comment: Bioavailability
Format: ADME, organism-based
run parameters: eutheria, in vivo
Label rule, in plain words: bioavailability of 20% and up is Condition met, under 20% is Condition not met.

[[record]]
mol_smiles = "COc1cccc([C@H](O)C2CCN(CCc3ccc(F)cc3)CC2)c1OC"
class_label = "Condition not met"

[[record]]
mol_smiles = "O=C(CN1CCC(S(=O)(=O)c2ccccc2)CC1)c1ccc(F)cc1"
class_label = "Condition met"

[[record]]
mol_smiles = "NC(=O)c1ccc(S(=O)(=O)C2CCN(CCc3ccc(F)cc3F)CC2)cc1"
class_label = "Condition met"

[[record]]
mol_smiles = "NC(=O)c1cccc(S(=O)(=O)C2CCN(CCc3ccc(F)cc3F)CC2)c1"
class_label = "Condition met"

[[record]]
mol_smiles = "N#Cc1ccc(S(=O)(=O)C2CCN(CCc3ccc(F)cc3F)CC2)cc1"
class_label = "Condition met"

[[record]]
mol_smiles = "O=S(=O)(c1ccccc1)C1CCN(CCc2ccc(F)cc2F)CC1"
class_label = "Condition not met"

